// provenance: ChEMBL document CHEMBL1201862

Tested on: SF-539
assay details: NCI tumour cell line growth inhibition, 48 h
Active and inactive are the calls of the source. No stated cut-off is given here; in the data, active = GI50 up to about 1.1 µM and inactive = higher. *1 amine or outer side, *2 acyl side, *3 side chain or, on linkers, in order; H or OH if unused. Where a SMILES comes first, the peptide text is derived from it. Bridges are numbered along the chain shown (N, C = ends). Roman numbers before positions name the chains, in order. [ ]: non-standard residue; d: D form. Actinocin(9to1) = Cc1c2oc3c(C)ccc(C(=O)[*:1])c3nc-2c(C(=O)[*:2])c(N)c1=O; NMeV = CN[CH](C(=O)O)C(C)C; Sar = CNCC(=O)O
Labels: t (active), f (inactive)

compound: O=c1[nH]nc(-c2ccccc2)n1/N=C/c1ccncc1
category label: f

compound: Cc1ccc(/C=C2\CCCC(C(NO)c3ccc(C)cc3)C2=NO)cc1 (centres undefined)
category label: f

compound: Cc1c2oc3c(C)ccc(C(=O)NC4C(=O)NC(C(C)C)C(=O)N5CCCC5C(=O)N(C)CC(=O)N(C)C(C(C)C)C(=O)OC4C)c3nc-2c(C(=O)NC2C(=O)NC(C(C)C)C(=O)N3CCCC3C(=O)N(C)CC(=O)N(C)C(C(C)C)C(=O)OC2C)c(N)c1=O (centres undefined) (I: TVP[Sar][NMeV] / II: TVP[Sar][NMeV]; ester I:1-I:C, II:1-II:C; linker I:N-II:N via Actinocin(9to1); configuration not given here)
category label: t

compound: CCOC(C)C(/C=N/NC(N)=S)=NNC(N)=S (centres undefined)
category label: f

compound: C#CCOC(=O)C(N)CC(N)=O (centres undefined)
category label: f

compound: CCCCCC(O)[C@H]1C(=O)C[C@@H](O[Si](C)(C)C(C)(C)C)[C@@H]1/C=C/CCOCc1ccccc1 (some centres undefined)
category label: f

compound: C/C=C/C1=CC(=O)C(O)C1O (centres undefined)
category label: f

compound: c1ccc(C2=NCCc3cc4c(cc32)OCO4)cc1
category label: f

compound: Cc1c(O)c(=O)ccn1CCc1c[nH]c2ccccc12
category label: f
